Assignment: determine reported GI50 for the given compounds.
- Test system: IGROV-1
- Assay comment: In vitro antiproliferative activity against human IGROV ovarian cell line
- Type: functional
Just the number please, in µM, no unit attached.

What value of measured GI50 is listed for Cc1cccc2c3ccc4ccccc4c3c(-c3ccccc3)n[n+]12 ?
1.7

Next: CCOc1ccc(-c2n[n+]3c(C)cccc3c3ccc4ccccc4c23)cc1
2.4

Next: c1ccc(-c2n[n+]3c4ccccc4ccc3c3ccc4ccccc4c23)cc1
0.5

Next: CCOc1ccc(-c2n[n+]3c4ccccc4ccc3c3ccc4ccccc4c23)cc1
2.6

====

- Tested on: LNCaP
- Assay comment: In vitro antiproliferative activity against human LN-caP prostate cell line
- Format: functional
Assignment: determine reported GI50 for the given molecules.
Just the number please, in nM, no unit attached.

Checklist item: GI50 tested on LNCaP, entry COc1cccc2c1C(=O)c1c(O)c3c(c(O)c1C2=O)C[C@@](O)(C(=O)CO)C[C@@H]3O[C@H]1C[C@H](N)[C@H](O)[C@H](C)O1 , value?
20

Next: CCOc1ccc(-c2n[n+]3ccccc3c3ccc4ccccc4c23)cc1
500

Next: Cc1cc[n+]2nc(-c3ccccc3)c3c4ccccc4ccc3c2c1
4000

====

Assignment: determine reported GI50 for the given molecules.
- Test system: HT-29
- Assay comment: In vitro antiproliferative activity against human HT-29 colon cell line
- Format: functional
Just the number please, in nM, no unit attached.

What value of measured GI50 is listed for CCOc1ccc(-c2n[n+]3c4ccccc4ccc3c3ccc4ccccc4c23)cc1 ?
5400

Next: CCOc1ccc(-c2n[n+]3ccccc3c3ccc4ccccc4c23)cc1
1100

Next: COc1cccc2c1C(=O)c1c(O)c3c(c(O)c1C2=O)C[C@@](O)(C(=O)CO)C[C@@H]3O[C@H]1C[C@H](N)[C@H](O)[C@H](C)O1 [DOXORUBICIN]
3100

Next: c1ccc(-c2n[n+]3c4ccccc4ccc3c3ccc4ccccc4c23)cc1
400
